assay: method code SF, from Hansch, C. & Leo, A. (1987). Log P database [Dataset]. Pomona College Medicinal Chemistry Project.; details: pH 6.8
I'd be grateful if you could share measured logD for these entries.
Give bare numbers.

COC1(NC(=O)CSC(F)F)C(=O)N2C(C(=O)OCC(=O)C(C)(C)C)=C(CSC3(C)N=NN=N3)CSC21 (configuration not stated) | 2.31

// recorded logD for CC(=O)OCOC(=O)C1=C(CSC2(C)N=NN=N2)CSC2C(NC(=O)C(O)c3ccccc3)C(=O)N12 (configuration not stated) : 0.75

====

assay: method code SF, from Hansch, C. & Leo, A. (1987). Log P database [Dataset]. Pomona College Medicinal Chemistry Project.
Give logP for every item shown.

# example entries with known answers
O=c1[nH]c(=O)n([C@H]2C[C@H](O)[C@@H](CO)O2)cc1C(F)(F)F | -0.46
OCc1cccs1 | 0.87
O=C1OCc2ccccc21 | 0.8
O=C(N[C@H](CO)[C@H](O)c1ccc(-c2ccccn2)cc1)C(F)(F)F | 1.31
CCOC(=O)C(=Cc1cccc(OCC)c1)C(C)=O | 2.71
CNC(=S)NC12CC3CC(CC(C3)C1)C2 | 2.67
O=C(Nc1ccccc1)NC(CO)(CO)CO | 0.43
O=[N+]([O-])c1ccc(O[C@@H]2O[C@H](CO)[C@@H](O[C@H]3O[C@H](CO)[C@@H](O)[C@H](O)[C@H]3O)[C@H](O)[C@H]2O)cc1 | -1.39
O=S1(=O)NC(C2CC3C=CC2C3)=Nc2ccccc21 (stereo unspecified) | 2.06
NC1=Nc2cc(Cl)ccc2S(=O)(=O)N1 | 0.91

// for each compound below, give its logP
1. CC(C)(C)N
2. O=C(O)COc1ccccc1-c1ccccc1
3. CC(C)(C)C(=O)Nc1ccc(Cl)c(Cl)c1
4. CC(=O)Nc1cn[nH]c1

[0.4, 2.83, 3.88, -0.38]

Report logP for each item below.
1. Cc1ccc(C(O)c2ccccc2)cc1 (stereo unspecified)
2. c1cnc2ncncc2n1

3.13
-0.58
